Test system: tRNA 2'-phosphotransferase TPT1 (Candida albicans SC5314)
Protocol Summary: tRNA 2'-phosphotransferase blockers, C. albicans – biochemical, fluorescence polarization, primary screen (AID 1962)
Condition Info: recombinant caTPT1, FP RNA substrate dephosphorylation; at 5 µM
Out of some 300,000 compounds screened, about 2,500 (0.83%) were called active.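 How the source made its calls: active means inhibition above the mean of all tested compounds plus 3 SD, set per screening campaign (cut at about 24% in these data); inactive means the rest.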 The sample holds actives, similar compounds and a random draw of the others, so the mix is not that of the screen.
Classes used: active, inactive

                                    molecule  answer_label
 0  COCCNC(=O)C1CCN(C(=O)C2CC(=O)N(c3ccc(C)cc3)C2)CC1 (configuration not stated)      inactive
 1  CCn1cc(C(=O)NC2CCCCCC2)c(=O)c2cc(S(=O)(=O)N3CCCCC3)ccc21      inactive
 2  N#C/C(=C(/O)COC(=O)COc1ccc(Cl)cc1)c1nc2ccccc2[nH]1        active
 3  COc1cc(N2CCCC2)c(OC)cc1/C=C(/C#N)c1cccc(Br)c1        active
 4    CNc1nc2c(C)cccn2c(=O)c1C=Nc1ccc(OC)cc1      inactive
 5  CCn1c(/C=C/c2ccc([N+](=O)[O-])o2)nc2ccccc2c1=O        active
 6        O=C(CNc1ccc(F)cc1F)NC(=O)NCc1ccco1      inactive
 7  Cc1cc(/C=C2\SC(=O)N(C)C2=O)c(C)n1-c1cccc(C(=O)O)c1      inactive
 8                      CC(C)CCN1CCN=C1N(C)C      inactive
 9  O=C1c2ccccc2NC(c2ccc(-c3cccc(Cl)c3)o2)N1O (configuration not stated)      inactive
10              Nn1c(SCC(=O)Nc2nccs2)nncc1=O      inactive
11    COc1ccc(/C=C(\C#N)c2c[nH]c3ccccc23)cc1      inactive
12                 CC(C)NC(=O)c1ccc(Cl)cc1Cl      inactive
13  Cc1sc2nc(COC(=O)C(NC(=O)c3ccc(Cl)cc3Cl)C(C)C)[nH]c(=O)c2c1C (configuration not stated)        active
14  CC(NC(=O)CC1SC(N)=NC1=O)c1ccccc1 (configuration not stated)      inactive
15  Cc1ccc(-n2c(C)cc(/C=N/Nc3ccc([N+](=O)[O-])cn3)c2C)c(C)c1        active
16  COc1ccc(C(C(=O)NC2CCCCC2)N(C(=O)Cc2c[nH]c3ccccc23)c2ccccc2)cc1OC (configuration not stated)      inactive
17  CC(C)OCCCNc1nc2c(c(=O)n(Cc3ccccc3F)c(=O)n2C)n1C      inactive
18       COc1ccc(Nc2ccc([N+](=O)[O-])cn2)cn1      inactive
19     Cc1cc(C)c(/C=C2\C(=O)Nc3ccccc32)[nH]1        active
20      O=C(N/N=C/c1c[nH]c2ccccc12)c1ccccc1O      inactive
21  O=C1NN(c2ccccc2)C(=O)/C1=C/c1ccc(-c2cccc(C(=O)O)c2)o1      inactive

The origin of these recorded values is PubChem BioAssay AID1962.
